Record form. Attribute: inhibition. Fill in for each entry.
measured.target: Butyrylcholinesterase (Rattus norvegicus)
procedure.details: Inhibition of BuChE in rat serum at 40 uM using butyrylthiocholine iodide as substrate after 20 mins by Ellman's method
Report the figure in % without appending any unit label.

Give recorded inhibition. `C#CCN(CC#N)Cc1cn(-c2cc(NC(=S)NCC)ncn2)cn1`
5.48

Give recorded inhibition. `C#CCN(CC#C)Cc1cn(-c2cc(NC(=S)NCC)ncn2)cn1`
4.97

Give recorded inhibition. `C#CCN(CCCC)Cc1cn(-c2cc(NC(=S)NCC)ncn2)cn1`
13.4

Give recorded inhibition. `C#CCN1CCN(Cc2cn(-c3cc(NC(=S)NCC)ncn3)cn2)CC1`
7.3

Give recorded inhibition. `C#CCN(Cc1cn(-c2cc(NC(=S)NCC)ncn2)cn1)C(C)=O`
5.15

Give recorded inhibition. `C#CCNCCc1cn(-c2cc(NC(=S)NCC)ncn2)cn1`
8.73

Give recorded inhibition. `C#CCN(CC#N)CCc1cn(-c2cc(NC(=S)NCC)ncn2)cn1`
3.02

Give recorded inhibition. `C#CCN(C)CCc1cn(-c2cc(NC(=S)NCC)ncn2)cn1`
8.91

Give recorded inhibition. `C#CCN(C)CCCc1cn(-c2cc(NC(=S)NCC)ncn2)cn1`
6.7

Give recorded inhibition. `C#CCN(CC)CCc1cn(-c2cc(NC(=S)NCC)ncn2)cn1`
2.44

Give recorded inhibition. `C#CCN(Cc1ccccc1)Cc1cn(-c2cc(NC(=S)NCC)ncn2)cn1`
9.28

Give recorded inhibition. `C#CCN(CC)Cc1cn(-c2cc(NC(=S)NCC)ncn2)cn1`
10.5

Give recorded inhibition. `C#CCNCCCc1cn(-c2cc(NC(=S)NCC)ncn2)cn1`
12.7

Give recorded inhibition. `C#CCNCc1cn(-c2cc(NC(=S)NCC)ncn2)cn1`
15.2

Give recorded inhibition. `C#CCN(CCC)Cc1cn(-c2cc(NC(=S)NCC)ncn2)cn1`
7.75

Give recorded inhibition. `C#CCN(C)Cc1cn(-c2cc(NC(=S)NCC)ncn2)cn1`
12.6

These entries and their values trace back to ChEMBL document CHEMBL4138195.
